Target: sigma receptors (Cavia porcellus, UniProt Q60492)
Construct: The brain was immediately extracted; The cerebellum was removed from the brain; from tissue; host or cells: guinea pig brain without cerebellum, membrane pellet
Sequence (Q60492 whole entry): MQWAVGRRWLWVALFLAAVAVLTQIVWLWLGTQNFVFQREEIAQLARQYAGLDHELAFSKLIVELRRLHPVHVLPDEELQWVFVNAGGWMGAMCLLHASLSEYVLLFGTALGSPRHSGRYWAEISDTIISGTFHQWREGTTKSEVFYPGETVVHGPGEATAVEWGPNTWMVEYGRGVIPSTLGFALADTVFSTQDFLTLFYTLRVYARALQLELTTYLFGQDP
Test: Receptor binding test: inhibition of tritium-labeled (+) pentazocine binding to brain homogenate
Set-up: species or system male guinea pig
Settings: read-out: Inhibitive concentration at 50% (IC50), Sigma α-1 receptor
recorded.endpoint: IC50

1. Cc1ccc(C)c(N2CCN([C@@H]3Cc4c(I)cccc4C[C@H]3O)CC2)c1 (single isomer, unassigned)	1500 nM

====

Target: serotonin 5-HT1A receptors (Rattus norvegicus)
Construct: The hippocampi were immediately collected from the brains; from tissue; host or cells: rat hippocampus membranes
Sequence (P19327 1-422): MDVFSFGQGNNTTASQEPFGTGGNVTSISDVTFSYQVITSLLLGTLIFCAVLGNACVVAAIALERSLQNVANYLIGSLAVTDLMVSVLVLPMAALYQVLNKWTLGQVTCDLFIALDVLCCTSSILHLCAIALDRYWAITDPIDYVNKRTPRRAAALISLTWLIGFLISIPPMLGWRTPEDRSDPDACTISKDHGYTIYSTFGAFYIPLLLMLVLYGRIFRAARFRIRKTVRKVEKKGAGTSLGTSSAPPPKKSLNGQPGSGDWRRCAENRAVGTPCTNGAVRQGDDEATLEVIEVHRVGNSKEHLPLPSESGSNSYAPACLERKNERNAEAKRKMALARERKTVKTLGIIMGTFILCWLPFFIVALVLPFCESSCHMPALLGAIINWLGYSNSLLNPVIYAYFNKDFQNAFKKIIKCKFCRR
Experiment: Receptor binding test: inhibition of tritium-labeled 8-hydroxy-DPAT binding to brain (hippocampus) homogenate
Design: species or system Male Wistar rats
Settings: read-out: inhibitive concentration at 50% (IC50), Receptor 5-HT1A
recorded.endpoint: IC50 (nM)

1. O[C@@H]1Cc2cccc(I)c2C[C@H]1N1CCC(c2ccccc2)CC1 [(-)-IBVM, 5-iodobenzovesamicol, reference compound]	119

====

Target: adrenaline α1 receptors
Experiment: Receptor binding test: inhibition of tritium-labeled prazosin binding to brain homogenate
Parameters: species or system Male Wistar rats
Conditions: read-out: inhibitive concentration at 50% (IC50), Receptor Alpha-1; Table 9; high purity derivatives; unit inferred
recorded.endpoint: IC50 (nM)

1. O[C@@H]1Cc2cccc(I)c2C[C@H]1N1CCC(c2ccccc2)CC1 [(-)-IBVM, 5-iodobenzovesamicol, reference compound]	2.61

====

Biological target: vesamicol receptors (Rattus norvegicus)
Sequence (Q62666 whole entry): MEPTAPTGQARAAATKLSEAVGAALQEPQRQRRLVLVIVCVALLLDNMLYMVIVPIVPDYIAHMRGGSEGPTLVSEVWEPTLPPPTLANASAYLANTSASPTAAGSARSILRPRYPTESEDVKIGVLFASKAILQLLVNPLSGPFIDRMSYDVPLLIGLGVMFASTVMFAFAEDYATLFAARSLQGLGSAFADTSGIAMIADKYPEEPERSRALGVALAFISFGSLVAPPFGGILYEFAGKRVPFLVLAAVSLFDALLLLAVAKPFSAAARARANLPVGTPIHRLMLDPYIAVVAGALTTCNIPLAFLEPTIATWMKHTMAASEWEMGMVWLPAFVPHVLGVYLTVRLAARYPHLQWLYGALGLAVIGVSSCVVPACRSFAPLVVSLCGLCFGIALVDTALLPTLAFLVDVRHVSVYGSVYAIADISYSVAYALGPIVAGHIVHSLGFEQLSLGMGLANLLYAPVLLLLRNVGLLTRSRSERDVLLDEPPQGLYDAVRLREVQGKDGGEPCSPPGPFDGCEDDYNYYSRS
Assay: Inhibition experiment: inhibition of binding of radioactive-iodine-labeled DRC140 to P2 fractions
Set-up: Synaptic vesicles were extracted and separated from the brain of a rat; from tissue; host or cells: rat brain without cerebellum: P2, crude synaptic vesicles, purified synaptic vesicles
Details: inhibitive concentration at 50% (IC50), Receptor Vesamicol
pIC50: −log10 of the molar value.
recorded.endpoint: pIC50

1) CC(=O)Nc1ccccc1N1CCN([C@@H]2Cc3c(I)cccc3C[C@H]2O)CC1 (racemic) [DRF401]	9.05
2) Cc1ccccc1N1CCN([C@@H]2Cc3c(I)cccc3C[C@H]2O)CC1 (single isomer, unassigned) [DRE342]	9.25
3) COc1ccccc1N1CCN([C@@H]2Cc3c(I)cccc3C[C@H]2O)CC1 (racemic) [DRF400]	8.96
4) Cc1ccc(C)c(N2CCN([C@@H]3Cc4c(I)cccc4C[C@H]3O)CC2)c1 (racemic) [DRE348]	8.94

Sourced from patent EP1205473A1
